system: U937 cells; experiment: EC50 of necroptosis inhibition in U937 cells (TSZ-induced, CellTiter-Glo); assay type: cell-based; settings: Homo sapiens, U-937; TSZ (hTNF-α, SM-164, Z-VAD-FMK) 20 hours; 10 concentration points; read-out: EC50 intervals of necroptosis inhibition in U937 cells
pEC50: −log10 of the molar value.
The entries below come with measured pEC50 values attached.
metric.name: pEC50

• CN1C(=O)[C@@H](NC(=O)C(=O)NCCc2ccccc2)COc2ccc(C#CC3CN(C=O)C3)cc21 = > 7.00
• CN1C(=O)[C@@H](NC(=O)C(=O)NCCc2ccccc2)COc2ccc(C#CC3(O)CN(C=O)C3)cc21 = > 7.00
• C[C@@H](NC(=O)C(=O)N[C@H]1COc2ccc(C#CCN3C(=O)CCC3=O)cc2N(C)C1=O)c1ccccc1 = > 7.00
• C[C@H](O)C#Cc1ccc2c(c1)N(C)C(=O)[C@@H](NC(=O)C(=O)NCCc1ccccc1)CO2 = 6.30 to 7.00
• CN1C(=O)[C@@H](NC(=O)C(=O)NCCc2ccccc2)COc2ccc(C#CCNC(=O)CO)cc21 = > 7.00
• CN1C(=O)C(NC(=O)C(=O)NCc2ccccc2)CCc2ccccc21 (centres unmarked) = 5.70 to 6.30
• CN1C(=O)[C@@H](NC(=O)C(=O)NCCc2ccccc2)COc2ccc(C#CC3CCN(CC#N)CC3)cc21 = > 7.00
• C[C@H](NC(=O)C(=O)N[C@H]1COc2ccc(C#CCCO)cc2N(C)C1=O)c1ccccc1 = 6.30 to 7.00
• CN1C(=O)[C@@H](NC(=O)C(=O)NCCc2ccccc2)COc2ccc(C#CC(C)(C)O)cc21 = > 7.00
• CN1C(=O)[C@@H](NC(=O)C(=O)NCCc2ccccc2)COc2ccccc21 = 6.30 to 7.00
• CN1C(=O)[C@@H](NC(=O)C(=O)NCCc2ccccc2)COc2ccc(C#Cc3ccncc3)cc21 = > 7.00
• CN1C(=O)[C@@H](NC(=O)C(=O)NCc2ccccc2F)COc2ccc(C#CCCO)cc21 = 6.30 to 7.00
• CN1C(=O)[C@@H](NC(=O)C(=O)NCCc2ccccc2)COc2ccc(C#CC3(O)CCCCC3)cc21 = > 7.00
• Cc1ncsc1-c1ccc(CNC(=O)[C@@H]2C[C@@H](O)CN2C(=O)[C@@H](NC(=O)COCCOCCN2CCN(CC#Cc3ccc4c(c3)N(C)C(=O)[C@@H](NC(=O)C(=O)N[C@H](C)c3ccccc3)CO4)CC2)C(C)(C)C)cc1 = 6.30 to 7.00
